# test: Inhibition of beta-hematin formation assessed as reduction in acetate buffer-initiated hemozoin formation measured after 48 hrs
# Set-up: concentration or dose not given beside the values
# measurement.parameters: concentration not given here
reported.endpoint: inhibition (%)

{"molecule": "COC(=O)/C(=C\\c1ccc(OC(=O)c2cc(OC)cc(OC)c2)cc1)Sc1ccnc2cc(Cl)ccc12", "reported.endpoint": "inhibition", "measured.result": 85.6}
{"molecule": "CCN(CC)CCCC(C)Nc1ccnc2cc(Cl)ccc12 (stereo not drawn) [CHLOROQUINE]", "reported.endpoint": "inhibition", "measured.result": 98.5}
{"molecule": "COC(=O)/C(=C\\c1ccc(OC(=O)c2ccccc2)cc1)Sc1ccnc2cc(Cl)ccc12", "reported.endpoint": "inhibition", "measured.result": 33.6}
